assay.text: A quantitative high throughput screen for small molecules that induce DNA re-replication in SW480 colon adenocarcinoma cells. Note: nearly all actives have a fitted effect of over 55% in size.
condition.details: Hoechst DNA content imaging, 48 h; series mostly up to 46.1 µM
The whole screen tested about 340,000 compounds, of which about 6,200 (1.8%) were called active. About 10% were inconclusive and are not listed. Calls come from the whole dose curve; as a rule, active = well fitted activation curve with a large enough effect; inconclusive = small, poorly fitted or top-dose-only effect; inactive = no such curve, though single readings can be large or run the other way. The entries come from a sample that favours actives as a whole.
Bench note: report the call from 1 (yes) (active), 0 (no) (inactive)

Illustrative cases are given below, each with its answer.
Problem: Short answer needed: outcome of this test for COc1ccc2sc(-c3ccc(S(C)(=O)=O)cc3)c(-c3ccc(C(N)=O)cc3)c2c1 ?
Solution: 0 (no)

Problem: Entry CCOC(=O)CCC(NC(=O)c1ccc(CNc2nc3cc(C(F)(F)F)ccc3nc2C(=O)OCC)cc1)C(=O)OCC (configuration not stated) please
Solution: 0 (no)

Problem: Entry to check: CCC1([N+](=O)[O-])COC(c2ccc(C(C)C)cc2)OC1 (configuration not stated)
Solution: 0 (no)

Others:
Problem: For Cn1cncc1C#Cc1c(-c2ccsc2)sc2ccccc12 , which call appears in the assay record?
Solution: 0 (no)

Problem: // next record C#CCOCCOCCOCCNc1nc(N2CCN(C(=O)Cn3cc(CCO)nn3)CC2)nc(N2CCN(C(=O)Cn3cc(CCCN=C(N)N)nn3)CC2)n1
Solution: 0 (no)

Problem: Quick one: O=C(N[C@H]1C/C=C\C(c2cccc(F)c2)N(Cc2ccccc2)C(=O)C1)OCC1c2ccccc2-c2ccccc21 (some centres not stated)
Solution: 0 (no)

Problem: Try CCOc1cc(C(=O)N(Cc2ccccc2)c2ccc(C)cc2)ccc1OCC(=O)N1CCOCC1 next.
Solution: 0 (no)

Problem: Same question for Cc1nnc2n1N=C(c1ccccc1)CS2 please.
Solution: 0 (no)

* * *

assay.text: A quantitative high throughput screen for small molecules that induce DNA re-replication in SW480 colon adenocarcinoma cells. Note: nearly all actives have a fitted effect of over 55% in size.
condition.details: Hoechst DNA content imaging, 48 h; series mostly up to 46.1 µM
Excerpt: H Molecular Libraries Probe Production Network [MLPCN] NIH Chemical Genomics Center [NCGC] […] To identify compounds that induce re-replication in normal cells, an image-based assay was used to measure DNA content of nuclei, as detected by the fluorescent DNA binding dye, Hoechst. Cell nuclei were imaged by a fluorescence scanning plate imager and compounds that induce DNA re-replication were identified by the increase of nuclei with elevated fluorescence intensity […]
The campaign covered roughly 340,000 compounds. About 6,200 (1.8%) were called active. Not shown: some 10% with an inconclusive outcome. Calls follow the shape of the dose curve; as a rule, active = well fitted activation curve with a large enough effect; inconclusive = small, poorly fitted or top-dose-only effect; inactive = no such curve, though single readings can be large or run the other way. Only a selection was taken, and actives are over-represented in it overall.
Bench note: report the call from t for active, f for inactive

Problem: Record request — test call for CCC1([N+](=O)[O-])COC(c2ccc(C)cc2)OC1 (stereo unspecified)
Solution: f

Problem: Then COc1ccc(O)c(C=Nc2cc(C)on2)c1 ?
Solution: f

Problem: What do you have for COc1ccc(-c2cc(C(F)(F)F)nc(S(C)(=O)=O)n2)cc1OC ?
Solution: t

Problem: // same read-out, input: O=C(Nc1cccc(S(=O)(=O)N2CCCC2)c1)c1cncc(Br)c1
Solution: f

Problem: What about COc1ccc(-c2cc(C(F)(F)F)nc(NCc3cccnc3)n2)cc1 ?
Solution: f

Problem: Now consider COc1ccc(-c2ccc(Nc3ccc(S(=O)(=O)N4CCCC4)cc3)nn2)cc1OC .
Solution: f

---
Problem: Can you look up the reported call for CN(C)C(CNC(=O)c1cc2ccccc2o1)c1ccccc1 (stereo unspecified) for me?
Solution: f

Problem: Now consider CN1CCN(C(=O)c2ccc(-c3ccc(Br)cc3)o2)CC1 and answer again.
Solution: f

Problem: Moving on to the next compound: C#CCNC(=O)C1=C[C@@H](c2ccccc2)[C@H](CCCO)[C@@H](OCC)O1
Solution: t

Problem: What about this compound? COc1ccc(-c2onc(C)c2-c2ccc3c(c2)OCCO3)c(O)c1
Solution: t

Problem: Field entry: COc1ccc(CNC(=O)COC(=O)C(CCSC)N2C(=O)c3ccccc3C2=O)cc1 (stereo unspecified)
Solution: f

* * *

assay.text: A quantitative high throughput screen for small molecules that induce DNA re-replication in SW480 colon adenocarcinoma cells. Note: nearly all actives have a fitted effect of over 55% in size.
condition.details: Hoechst DNA content imaging, 48 h; series mostly up to 46.1 µM
Screen size: about 340,000 compounds; about 6,200 (1.8%) were called active. Roughly 10% stayed inconclusive and do not appear here. The call rests on the fitted dose curve; in most records, active means well fitted activation curve with a large enough effect; inconclusive means small, poorly fitted or top-dose-only effect; inactive means no such curve, though single readings can be large or run the other way. The sample as a whole holds a higher share of actives than the screen did.
Outcome field: choose from active, inactive

Sample answers from the record:
Problem: Hi, do you know how CCOC(=O)c1ccc(N/C(=N/S(=O)(=O)c2ccccc2)c2ccccc2)cc1 came out in this test?
Solution: active

Problem: Repeat with CCOc1ccccc1NC(=O)Cc1cccs1
Solution: inactive

Problem: Follow-up item: Cc1noc(C)c1S(=O)(=O)N(C)C[C@H]1Oc2ccc(NC(=O)C3CC3)cc2C(=O)N([C@H](C)CO)C[C@@H]1C
Solution: inactive

Problem: Record: Cc1ccsc1C(=O)N/N=C/c1ccc([N+](=O)[O-])cc1
Solution: inactive

---
Problem: Assay result, entry Cc1ccc(S(=O)(=O)/N=C(/Nc2ccc3[nH]c(=O)[nH]c3c2)c2ccccc2)cc1 — outcome?
Solution: inactive

Problem: Same read-out for O=c1c2ccccc2ncn1CCc1ccncc1 ?
Solution: inactive

* * *

assay.text: A quantitative high throughput screen for small molecules that induce DNA re-replication in SW480 colon adenocarcinoma cells. Note: nearly all actives have a fitted effect of over 55% in size.
condition.details: Hoechst DNA content imaging, 48 h; series mostly up to 46.1 µM
The whole screen tested about 340,000 compounds, of which about 6,200 (1.8%) were called active. Another 10% or so got no clear call; they are omitted. The call rests on the fitted dose curve; in most records, active means well fitted activation curve with a large enough effect; inconclusive means small, poorly fitted or top-dose-only effect; inactive means no such curve, though single readings can be large or run the other way. Many of the other results were omitted from the sample, so actives are more common in it than they were.
In this exercise, the only acceptable responses are TRUE = active, FALSE = inactive

Below are worked cases with known answers.
Problem: Lab log entry: Cc1ccccc1NC(=O)c1ccccc1NS(=O)(=O)c1cccc2cccnc12 — outcome as called in the assay?
Solution: FALSE

Problem: Similarly, O=C1OC(Cc2ccccc2)C(c2ccccc2)C1=O (stereo not given) ?
Solution: FALSE

Continuing:
Problem: How did this test come out for C/C=C/c1ccc(OCC(=O)NNC(=O)CN(C)S(=O)(=O)c2ccc(C)cc2)c(OC)c1 ?
Solution: FALSE

Problem: Same thing, different compound: C[C@]12CC[C@H](O)CC1=CCC1C2CC[C@@]2(C)C1CC[C@@H]2NC(=O)CCC(=O)O (stereo not given in full)
Solution: FALSE

Problem: Field entry: Oc1c(C(c2ccccn2)N2CCOCC2)ccc2cccnc12 (stereo not given)
Solution: FALSE

Problem: Consider next the compound CCCC(CNC(=O)COC(=O)C1=NNC(=O)CC1)c1ccc(Cl)cc1Cl (stereo not given) in the same way.
Solution: FALSE

Problem: Follow-up entry: O=C(Nc1ccc(Cl)cc1)C1c2cccc[n+]2CC(=O)N1Cc1ccc2c(c1)OCO2 (stereo not given)
Solution: TRUE

* * *

assay.text: A quantitative high throughput screen for small molecules that induce DNA re-replication in SW480 colon adenocarcinoma cells. Note: nearly all actives have a fitted effect of over 55% in size.
condition.details: Hoechst DNA content imaging, 48 h; series mostly up to 46.1 µM
About 6,200 (1.8%) of roughly 340,000 compounds were called active. About 10% were inconclusive and are not listed. Calls follow the shape of the dose curve; as a rule, active = well fitted activation curve with a large enough effect; inconclusive = small, poorly fitted or top-dose-only effect; inactive = no such curve, though single readings can be large or run the other way. For the sample, actives were picked, then their nearest neighbours and some compounds at random.
# valid calls are active, inactive; nothing else

The examples below pair each entry with its known result.
Problem: Entry O=C(COC(=O)CN1C(=O)C2CCCCC2C1=O)Nc1ccc(F)c(F)c1F (stereo unspecified) : call = ?
Solution: inactive

Problem: Also O=c1ccn([C@@H]2O[C@H](CNS(=O)(=O)c3cc4ccccc4s3)[C@@H](O)[C@H]2O)c(=O)[nH]1 , if possible.
Solution: inactive

Problem: Request: O=C(CN1C(=O)C2C3CCC(C3)C2C1=O)Oc1ccc2ccccc2c1 (stereo unspecified)
Solution: inactive

Problem: And for Cc1ccccc1-c1nc(C#N)c(NCc2ccco2)o1 ?
Solution: inactive

Problem: Next record, please: COc1ccc(N2CCN(C(CNS(=O)(=O)c3ccc(C)cc3)c3ccccc3)CC2)cc1 (stereo unspecified)
Solution: inactive

Problem: Now the compound Cn1nnnc1SCC(=O)Nc1cccc(S(=O)(=O)N2CCCCC2)c1
Solution: inactive

Problem: Please do the same for O=C1CC(c2ccccc2)C(c2ccccc2)=NN1 (stereo unspecified) as well.
Solution: inactive

Problem: Entry to check: CC1=CC(C)(C)Nc2ccc(OC(=O)CN3C(=O)C4CCCCC4C3=O)cc21 (stereo unspecified)
Solution: active

New cases:
Problem: Recorded test outcome, item COc1ccc(Nc2oc(-c3ccccc3Cl)nc2C#N)cc1
Solution: active

Problem: Okay, and CCOc1ccc(N/C=C/C(=O)c2cc(OC)c(OC)c(OC)c2)cc1 ?
Solution: active

Problem: // same read-out, input: N#Cc1nc(-c2cccc3ccccc23)oc1N
Solution: inactive

* * *

assay.text: A quantitative high throughput screen for small molecules that induce DNA re-replication in SW480 colon adenocarcinoma cells. Note: nearly all actives have a fitted effect of over 55% in size.
condition.details: Hoechst DNA content imaging, 48 h; series mostly up to 46.1 µM
Out of some 340,000 compounds screened, about 6,200 (1.8%) were called active. About 10% were inconclusive and are not listed. The call rests on the fitted dose curve; in most records, active means well fitted activation curve with a large enough effect; inconclusive means small, poorly fitted or top-dose-only effect; inactive means no such curve, though single readings can be large or run the other way. The sample holds actives, similar compounds and a random draw of the others, so the mix is not that of the screen.
Field 'call' accepts active, inactive

Problem: Field: outcome | Entry: COc1ccc(/C=C2\CCc3ccccc3C2=O)c(OC)c1OC
Solution: inactive

Problem: Try this compound too: CCC(=O)NC(=S)Nc1ccc(NC(=O)c2ccco2)c(Cl)c1
Solution: inactive

Problem: Input CCCn1c(=NC(C)=O)c(C(=O)OCC)cc2c(=O)n3ccccc3nc21
Solution: inactive

Problem: Then CC1(C)CC(=O)C(CC(=O)N2CCC(Cc3ccccc3)CC2)C(=O)C1 ?
Solution: inactive

Problem: Quick one: COc1ccc(/C=C2/CCCc3ccccc3C2=O)cc1
Solution: active
